Target: hFADS6 (human FAD synthase isoform 6) (Homo sapiens, UniProt Q8NFF5)
Construct: gene FLAD1; 320-residue isoform 6, FADSy domain only, lacks N-terminal FADHy domain; monomer
Sequence (Q8NFF5 268-587): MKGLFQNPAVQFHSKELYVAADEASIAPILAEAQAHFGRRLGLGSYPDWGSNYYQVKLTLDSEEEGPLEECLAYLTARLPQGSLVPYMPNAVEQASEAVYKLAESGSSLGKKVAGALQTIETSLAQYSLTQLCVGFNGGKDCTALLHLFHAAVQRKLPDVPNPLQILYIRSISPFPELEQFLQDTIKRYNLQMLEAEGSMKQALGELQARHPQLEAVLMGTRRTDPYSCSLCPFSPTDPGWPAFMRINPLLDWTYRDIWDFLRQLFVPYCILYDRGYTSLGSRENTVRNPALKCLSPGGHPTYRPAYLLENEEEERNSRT
Test: stopped-flow flavin fluorescence, koff/kon
Format: binding
Details: read-out: Kd
REPORTED ENDPOINT: pKd
Formally, pKd is defined as -log10 of the concentration c, with c in mol/L.

Give its pKd value. Item: Cc1cc2nc3c(=O)[nH]c(=O)nc-3n(C[C@H](O)[C@H](O)[C@H](O)COP(=O)(O)OP(=O)(O)OC[C@H]3O[C@@H](n4cnc5c(N)ncnc54)[C@H](O)[C@@H]3O)c2cc1C 6.74

Origin of values: paper PMC6941110
